Hi there, I'd appreciate the recorded cell viability for every entry that follows.
- Test system: SEM cells
- test.protocol: cell viability relative to DMSO control; higher = less cytotoxic
- assay.conditions: RPMI 5 mM glucose + 10% FBS; 48 h; 0.000781 µM
Numbers only, in %.

CC(C)(C)C(=O)OCOP(=O)(COCCn1cnc2c(N)ncnc21)OCOC(=O)C(C)(C)C | 108
CCn1c(-c2nonc2N)nc2cncc(CNC3CCNCC3)c21 | 101
CC\1=C(C(=O)N(\C=C1)C2=CC=C(C=C2)C3=NC=CO3)/C4=CC5=CN=C(N)N=C5C=C4 | 87.3

Okay, here is my list. What is cell viability for each of these?
1. Cc1ncc(OC[C@@]2(c3cccc(F)c3)C[C@H]2C(=O)Nc2ccc(F)cn2)c(C)n1
2. CC(=O)Nc1ccc([C@H](C)C(=O)Nc2ncc(C(C)C)s2)cc1

1: 113; 2: 107
